Consider the following substances and their measured Eosinophil readings.
- Test system: ICR (CD-1) mice
- Protocol Notes: In vivo toxicity in mice (SC, IN, IP routes)
- Test Context: SC, 3 doses (1hr, 12hr, 24hr); head doses: RN7-IN10, RN7-IN8 20 mg/kg; RN7-IN9, RN7-IN6 10 mg/kg; day 7; mean±SD, 4 mice
Include the unit right after the number.

Solved cases (3 shown):
> print(dat)
                                  substance  observed.value
1  FLGGLIKWKWPWWPWRR-NH2 [RN7-IN10, hybrid peptide of ranalexin (residues 1-7) and indolicidin (residues 4-13)]      2.82±0.25%
2  FLGGLIKWWPWRR-NH2 [RN7-IN6, hybrid peptide of ranalexin (residues 1-7) and indolicidin (residues 8-13)]       2.7±0.71%
3  FLGGLIKWPWWPWRR-NH2 [RN7-IN8, hybrid peptide of ranalexin (residues 1-7) and indolicidin (residues 6-13)]      2.42±0.61%

Now let's try a different one.
Eosinophil for FLGGLIKKWPWWPWRR-NH2 [RN7-IN9, hybrid peptide of ranalexin (residues 1-7) and indolicidin (residues 5-13)] is 2.77±0.54%
